Values compiled from ChEMBL document CHEMBL2218924.

I'd be grateful if you could share measured residual activity for these entries.
target: Protein kinase C delta type (Homo sapiens) (UniProt Q05655); settings: at 1 µM
Sequence (Q05655 whole entry, looked up): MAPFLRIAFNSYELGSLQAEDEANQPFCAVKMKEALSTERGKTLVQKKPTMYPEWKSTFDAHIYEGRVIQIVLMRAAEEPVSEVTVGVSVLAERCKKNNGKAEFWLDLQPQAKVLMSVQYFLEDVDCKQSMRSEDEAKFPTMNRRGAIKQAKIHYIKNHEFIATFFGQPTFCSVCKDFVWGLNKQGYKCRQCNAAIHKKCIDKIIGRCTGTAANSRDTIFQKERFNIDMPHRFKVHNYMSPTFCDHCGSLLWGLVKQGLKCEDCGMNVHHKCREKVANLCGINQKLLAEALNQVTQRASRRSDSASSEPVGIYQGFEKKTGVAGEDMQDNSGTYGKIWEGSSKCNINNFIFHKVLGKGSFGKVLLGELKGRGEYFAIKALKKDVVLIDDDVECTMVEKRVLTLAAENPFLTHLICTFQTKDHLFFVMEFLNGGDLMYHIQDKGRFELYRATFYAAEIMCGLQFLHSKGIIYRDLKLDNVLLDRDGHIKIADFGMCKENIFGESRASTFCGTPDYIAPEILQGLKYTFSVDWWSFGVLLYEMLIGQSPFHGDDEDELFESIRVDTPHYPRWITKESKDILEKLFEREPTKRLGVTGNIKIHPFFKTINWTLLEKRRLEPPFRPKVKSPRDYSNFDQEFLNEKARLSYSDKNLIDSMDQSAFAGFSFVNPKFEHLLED
Only the number, expressed in %, is required.

Req: Give the measured residual activity for "CC(=O)c1ccc(N2CCOCC2)cc1O"
Resp: 101

Req: Give the measured residual activity for "CO[C@H]1C[C@@H]2CC[C@@H](C)[C@@](O)(O2)C(=O)C(=O)N2CCCC[C@H]2C(=O)O[C@H]([C@H](C)C[C@@H]2CC[C@@H](O)[C@H](OC)C2)CC(=O)[C@H](C)/C=C(\C)[C@@H](O)[C@@H](OC)C(=O)[C@H](C)C[C@H](C)/C=C/C=C/C=C/1C"
Resp: 98

Req: Give the measured residual activity for "CN(C)CCCn1cc(C2=C(c3c[nH]c4ccccc34)C(=O)NC2=O)c2ccccc21"
Resp: 2

Req: Give the measured residual activity for "CCN(CC)CCCCN1c2ccccc2Oc2ccc(Cl)cc21"
Resp: 107

Req: Give the measured residual activity for "Nc1n[nH]c2nnc(-c3c(-c4ccccc4)nn4ccccc34)cc12"
Resp: 22

Req: Give the measured residual activity for "c1ccc(-c2n[nH]cc2-c2ccnc3ccccc23)nc1"
Resp: 94

Req: Give the measured residual activity for "N#Cc1cnc2cnc(NCc3cccnc3)cc2c1Nc1ccc(F)c(Cl)c1"
Resp: 61

Req: Give the measured residual activity for "O=C1Nc2cc(Br)ccc2/C1=C1/Nc2ccccc2/C1=N\O"
Resp: 112

Req: Give the measured residual activity for "O=C1NC(=O)/C(=C\c2ccc3nccnc3c2)S1"
Resp: 99

Req: Give the measured residual activity for "COc1cc2ncnc(Nc3ccc(NC(=O)c4ccccc4)cc3)c2cc1OC"
Resp: 107

Req: Give the measured residual activity for "O=Nc1c(-c2c(O)[nH]c3ccccc23)[nH]c2ccccc12"
Resp: 85

Req: Give the measured residual activity for "O=C1NC(=O)c2c1c1c3ccccc3[nH]c1c1[nH]c3cc(Br)ccc3c21"
Resp: 97

Req: Give the measured residual activity for "COc1cc2ncnc(Nc3ccc(Oc4ccccc4)cc3)c2cc1OC"
Resp: 103

Req: Give the measured residual activity for "O=C(Nc1cccc(Nc2nccc(Nc3cccc(C(F)(F)F)c3)n2)c1)C1CC1"
Resp: 100

Req: Give the measured residual activity for "Cn1cc(/C=C2\C(=O)Nc3ccc(S(N)(=O)=O)cc32)c2ccccc21"
Resp: 101

Req: Give the measured residual activity for "CO[C@@H]1[C@H](N(C)C(=O)c2ccccc2)C[C@H]2O[C@]1(C)n1c3ccccc3c3c4c(c5c6ccccc6n2c5c31)C(=O)NC4"
Resp: 21

Req: Give the measured residual activity for "O=c1c2ccccc2[nH]c(=S)n1CCN1CCC(=C(c2ccc(F)cc2)c2ccc(F)cc2)CC1"
Resp: 101

Req: Give the measured residual activity for "COc1ccc(C(=O)Nc2sc3c(c2C(N)=O)CCCC3)cc1OC"
Resp: 101

Req: Give the measured residual activity for "CNc1cc2c(Nc3cccc(Br)c3)ncnc2cn1"
Resp: 104

Req: Give the measured residual activity for "CC(C)n1cnc2/c(=N/c3cccc(Cl)c3)nc(NCCO)[nH]c21"
Resp: 96
